Molecular target: TLR7/NFKb HEK cells (Homo sapiens, UniProt Q9NYK1)
Construct: expressed in transfected cells; host or cells: HEK cells (TLR7/NFKb reporter line)
Sequence (Q9NYK1 27-1049): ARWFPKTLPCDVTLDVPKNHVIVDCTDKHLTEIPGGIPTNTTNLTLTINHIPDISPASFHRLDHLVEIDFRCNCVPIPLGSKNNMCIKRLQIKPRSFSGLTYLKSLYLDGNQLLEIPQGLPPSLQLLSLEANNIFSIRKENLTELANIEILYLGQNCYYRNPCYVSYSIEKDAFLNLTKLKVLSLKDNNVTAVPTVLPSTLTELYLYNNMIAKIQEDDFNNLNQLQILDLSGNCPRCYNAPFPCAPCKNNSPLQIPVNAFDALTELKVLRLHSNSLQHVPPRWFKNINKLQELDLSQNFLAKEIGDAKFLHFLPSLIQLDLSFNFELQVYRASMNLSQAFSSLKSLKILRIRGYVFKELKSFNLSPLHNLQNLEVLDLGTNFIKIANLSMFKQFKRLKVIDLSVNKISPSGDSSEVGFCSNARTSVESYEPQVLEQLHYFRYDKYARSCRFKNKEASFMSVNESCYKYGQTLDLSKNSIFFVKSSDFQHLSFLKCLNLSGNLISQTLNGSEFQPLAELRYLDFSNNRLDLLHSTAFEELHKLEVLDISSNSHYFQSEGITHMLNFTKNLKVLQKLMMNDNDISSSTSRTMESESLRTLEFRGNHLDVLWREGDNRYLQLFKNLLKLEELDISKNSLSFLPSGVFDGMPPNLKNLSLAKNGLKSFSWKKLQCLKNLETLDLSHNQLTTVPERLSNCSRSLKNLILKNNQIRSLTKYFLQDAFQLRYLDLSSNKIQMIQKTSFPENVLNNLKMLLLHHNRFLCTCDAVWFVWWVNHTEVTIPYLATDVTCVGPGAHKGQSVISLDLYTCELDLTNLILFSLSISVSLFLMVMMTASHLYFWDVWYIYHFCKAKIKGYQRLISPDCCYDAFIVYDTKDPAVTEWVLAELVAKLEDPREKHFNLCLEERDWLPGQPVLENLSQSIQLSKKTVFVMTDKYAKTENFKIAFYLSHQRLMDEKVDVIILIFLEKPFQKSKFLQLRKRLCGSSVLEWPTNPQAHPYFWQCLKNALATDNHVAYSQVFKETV
Assay: HEK Cell Assay (TLR7/NFKb reporter, Steady-Glo luciferase readout)
Format: cell-based
Settings: 30 min compound preincubation, then R*48 agonist for 5 hours, read-out: Potency
Protocol: Example 142: HEK Cell Assay Into 384 CulturePlates (Corning 3707) was placed 5000 c/w of TLR7/NFKb HEK cells in 30 uL DMEM without Phenil red (gibco #31053) and 10% i.a. FCS and 2 mM L-ZGLutamin. The cells were incubated for 24 h at 37° C., 10% carbon dioxide and 90% relative humidity. […] The assay plate was allowed to sit for 30 min at room temperature and then the plate was read on EnVision.
pIC50: −log10 of the molar value.
Quantity Name: pIC50

Compound	Quantity Name	Experimental Value
C[C@H]1C[C@@H](NC(=O)C(N)C2CC2)CN(c2ccc(C(F)F)c3ncccc23)C1 (some centres unmarked) [Compound 306]	pIC50	> 6.00

Hi! Can you tell me pIC50 for each of these compounds?
1. C[C@H]1C[C@@H](NC(=O)C2CCCN2C)CN(c2ccnc3nccnc23)C1 (some centres unmarked) [Compound 172]
2. CC(C(=O)N[C@@H]1C[C@H](C)CN(c2ccc(C(F)F)c3ncccc23)C1)N1CCC(O)CC1 (some centres unmarked) [Compound 313]
3. CCN(CC)CCNCC1CCN(c2ccnc3ccc(OC)cc23)CC1 [Compound 382]
4. CC(C(=O)NC1CN(c2ccc(C#N)c3nccnc23)CC(F)(F)C1)N1CCC1 (single isomer, unassigned) [Compound 508]

Return:
1: 5.00 to 6.00; 2: > 6.00; 3: 5.00 to 6.00; 4: 5.00 to 6.00
